tested on: PC-3; assay: Antiproliferative activity against human PC-3 cells assessed as reduction in cell viability measured for 48 hr by MTT assay; assay type: functional, cell-based; conditions: PC-3, 48 h
QUANTITY_KIND: pIC50
# reply with the number alone; pIC50 is -log10 of concentration in mol/L

The compound `CCOC(=O)c1c(N)sc(/N=C/c2ccc([N+](=O)[O-])s2)c1C(=O)OCC` , tested on PC-3, showed pIC50 of 4.96

----------
tested on: Influenza A virus; assay: Antiviral activity against influenza A virus; type: functional, organism-based
List of IC50 values.
Quick reminder: number only, in µM, skip the unit.

CCOC(=O)c1c(N)sc(/N=C/c2ccc([N+](=O)[O-])o2)c1C(=O)OCC : 0.79

get_value(item= `CCOC(=O)c1c(N)sc(/N=C/c2ccc([N+](=O)[O-])s2)c1C(=O)OCC` , readout=IC50) returns 10.5
